# SYSTEM_NAME: KRas Q61H mutant (Homo sapiens (Human), UniProt P01116, Q61H)
# Sequence (P01116-2 other isoform, or with tags, fused parts or gaps Q61H): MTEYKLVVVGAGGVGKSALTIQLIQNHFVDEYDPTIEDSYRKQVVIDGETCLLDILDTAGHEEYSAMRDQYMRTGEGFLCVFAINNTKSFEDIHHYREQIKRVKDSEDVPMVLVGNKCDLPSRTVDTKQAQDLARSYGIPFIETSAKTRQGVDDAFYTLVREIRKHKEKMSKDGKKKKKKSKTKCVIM
# ASSAY_PROTOCOL: Ras GTP binding domain inhibition assay (labeled GTP)
# CONDITION_DETAILS: 20 μM compound; KRas Q61H; read-out: % Inhibition at 20 μM of K-Ras mutant and wild-type protein, KRas Q61H
MEASURE: inhibition at 20 µM

Observe how each entry below is paired with its result.
Cc1sc2c(O)nc(-c3ccccn3)nc2c1C(=O)O [drawing 3482]; 25 to 50%
Cn1ccnc1-c1nc(O)c2c(-c3ccccc3)c(-c3ccccc3)sc2n1 [drawing 3536]; 1 to 25%
COc1cnc(-c2cn(C)cn2)nc1O [drawing 3496]; 76 to 100%
Oc1nc(-c2ccccn2)nc2cc(-c3ccc(-c4ccccc4)cc3)sc12 [drawing 3559]; 1 to 25%

Fill in the blank: the reported inhibition at 20 µM of COc1cnc(-c2ccccn2)nc1O [drawing 3469] is ____. 51 to 75%

* * *

# SYSTEM_NAME: KRas G12C mutant (Homo sapiens (Human), UniProt P01116, G12C)
# Sequence (P01116-2 other isoform, or with tags, fused parts or gaps G12C): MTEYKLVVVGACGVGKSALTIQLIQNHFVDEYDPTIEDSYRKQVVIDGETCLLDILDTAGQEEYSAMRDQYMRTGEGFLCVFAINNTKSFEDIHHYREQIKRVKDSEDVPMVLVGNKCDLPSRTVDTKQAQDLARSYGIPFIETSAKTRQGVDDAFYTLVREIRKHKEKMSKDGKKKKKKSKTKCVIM
# ASSAY_PROTOCOL: Ras GTP binding domain inhibition assay (labeled GTP)
# CONDITION_DETAILS: 20 μM compound; KRas G12C; read-out: % Inhibition at 20 μM of K-Ras mutant and wild-type protein, KRas G12C
MEASURE: inhibition at 20 µM

Cc1sc2c(O)nc(-c3nccn3C)nc2c1-c1ccc(OC(C)C)c(F)c1 [drawing 3610]; 1 to 25%
CN(C)CCOc1cccc(-c2csc3c(O)nc(-c4ccccn4)nc23)c1 [drawing 3492]; 51 to 75%
Cn1ccnc1-c1nc(O)c2scc(-c3ccc(C(C)(C)C)cc3)c2n1 [drawing 3619]; 25 to 50%
Cc1sc2c(O)nc(-c3nccn3C)nc2c1-c1cccc(C(F)(F)F)c1 [drawing 3599]; 1 to 25%
Cc1c(C(=O)O)sc2c(O)nc(-c3ccccn3)nc12 [drawing 3475]; 1 to 25%

Fill in the blank: the reported inhibition at 20 µM of COCCNc1nc(-c2nccn2C)nc2sc(-c3ccccc3)c(-c3ccccc3)c12 [drawing 3535] is ____. 51 to 75%

Fill in the blank: the reported inhibition at 20 µM of Cn1ccnc1-c1nc(O)c2sc(-c3ccccc3)c(-c3cccc(C(F)(F)F)c3)c2n1 [drawing 3592] is ____. 0%

Fill in the blank: the reported inhibition at 20 µM of COCCNc1nc(-c2cn(C)cn2)nc2sc(C)c(-c3ccccc3)c12 [drawing 3585] is ____. 25 to 50%

Fill in the blank: the reported inhibition at 20 µM of COCCNc1nc(-c2ccncn2)nc2sc(-c3ccccc3)c(-c3ccccc3)c12 [drawing 3574] is ____. 1 to 25%

Fill in the blank: the reported inhibition at 20 µM of Cn1ccnc1-c1nc(O)c2scc(-c3cccc(OC(F)(F)F)c3)c2n1 [drawing 3603] is ____. 1 to 25%

Fill in the blank: the reported inhibition at 20 µM of COCCNc1nc(-c2nccn2C)nc2sc(-c3ccccc3)c(-c3ccncc3)c12 [drawing 3596] is ____. 25 to 50%

* * *

# SYSTEM_NAME: KRas G12D mutant protein (Homo sapiens (Human), UniProt P01116, G12D)
# Sequence (P01116-2 other isoform, or with tags, fused parts or gaps G12D): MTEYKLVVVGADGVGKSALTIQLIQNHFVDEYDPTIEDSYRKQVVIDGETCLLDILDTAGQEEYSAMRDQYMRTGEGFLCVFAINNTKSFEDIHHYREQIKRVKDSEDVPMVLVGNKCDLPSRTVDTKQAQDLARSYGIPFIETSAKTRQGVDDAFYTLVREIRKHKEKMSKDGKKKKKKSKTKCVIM
# ASSAY_PROTOCOL: Ras GTP binding domain inhibition assay (labeled GTP)
# CONDITION_DETAILS: at 20 μM; read-out: KRas G12D % Inh.
Quick reference for inhibition at 20 µM among some compounds

Observe how each entry below is paired with its result.
Oc1nc(-c2ccccn2)nc2c(-c3cc(F)cc(F)c3)csc12 [drawing 3772]; 51 to 75%
Cc1sc2c(O)nc(-c3nccn3C)nc2c1-c1ccc(OCC(C)C)nc1 [drawing 3918]; 1 to 25%
COCCNc1nc(-c2ccccn2)nc2sc(-c3ccccc3)c(-c3ccccn3)c12 [drawing 3938]; 1 to 25%
Oc1nc(-c2ccccn2)nc2c(-c3ccc4c(c3)CCCO4)csc12 [drawing 3774]; 51 to 75%
N#Cc1ccc(COCC(=O)Nc2nc(-c3ccccn3)nc3sccc23)cc1 [drawing 3688]; 76 to 100%
Oc1nc(-c2ccccn2)nc2c(-c3ccc(F)cc3F)csc12 [drawing 3743]; 51 to 75%
COc1nc(-c2ccccn2)nc2c1c(-c1ccccc1)nn2-c1ccccn1 [drawing 3858]; 51 to 75%
CC1CN(c2ccccc2)CCN1C(=O)c1csc2c(O)nc(-c3ccccn3)nc12 (stereo not drawn) [drawing 3650]; 76 to 100%

Kindly consider the entry below.
Fill in the blank: the reported inhibition at 20 µM of O=C(CCn1ccnc1)Nc1nc(-c2ccccn2)nc2sccc12 [drawing 3761] is ____. 76 to 100%

* * *

# SYSTEM_NAME: KRas G12D/Q61H double mutant (Homo sapiens (Human), UniProt P01116, G12D/Q61H)
# Sequence (P01116-2 other isoform, or with tags, fused parts or gaps G12D/Q61H): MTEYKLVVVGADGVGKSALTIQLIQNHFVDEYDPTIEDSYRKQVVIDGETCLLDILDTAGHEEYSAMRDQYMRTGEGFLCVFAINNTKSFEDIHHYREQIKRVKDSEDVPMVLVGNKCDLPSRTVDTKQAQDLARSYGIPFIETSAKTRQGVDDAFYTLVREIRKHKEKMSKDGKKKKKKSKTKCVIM
# ASSAY_PROTOCOL: Ras GTP binding domain inhibition assay (labeled GTP)
# CONDITION_DETAILS: 20 μM compound; KRas G12D/Q61H double mutant; read-out: % Inhibition at 20 μM of K-Ras mutant and wild-type protein, KRas G12D Q61H
Quick reference for inhibition at 20 µM among some molecules

Cc1c(C(=O)N(CCc2ccccc2)Cc2ccccc2)cccc1[N+](=O)[O-]; 25 to 50%
O=C(c1ccc(-c2ccccc2F)o1)N(Cc1ccco1)C1CCCC1; 51 to 75%
COc1nc(-c2ccccn2)nc2c1c(-c1ccccc1)nn2-c1ccccn1 [drawing 3540]; 51 to 75%
N#Cc1cccc(-c2csc3c(O)nc(-c4ccccn4)nc23)c1 [drawing 3503]; 1 to 25%

Kindly consider the entry below.
// fetch KRas G12D/Q61H double mutant (Homo sapiens (Human), UniProt P01116, G12D/Q61H) inhibition at 20 µM for Oc1nc(-c2ccccn2)nc2c(C3CCC3)csc12 [drawing 3478] 51 to 75%

* * *

# SYSTEM_NAME: KRas G12D/Q61H double mutant (Homo sapiens (Human), UniProt P01116, G12D/Q61H)
# ASSAY_PROTOCOL: Ras GTP binding domain inhibition assay (labeled GTP)
# CONDITION_DETAILS: 20 μM; read-out: KRas G12D Q61H % Inh.
Quick reference for inhibition at 20 µM among some compounds

OCCNc1nc(-c2ccccn2)nc2scc(-c3ccccc3)c12 [drawing 2603]; 25 to 50%
O=C(Cn1cnc2ccccc2c1=O)Nc1nc(-c2ccccn2)cs1 [drawing 2574]; 25 to 50%
O=C(Nc1nnc(-c2ccccn2)[nH]1)C1Cc2ccccc2O1 (stereo not drawn) [drawing 2509]; 51 to 75%
COC(=O)c1cccc(CN2CCC(CSc3ccccc3)C2)c1C#N (stereo not drawn) [drawing 2611]; 25 to 50%
CC(C)COC(C)C(=O)Nc1nnc(-c2ccccn2)[nH]1 (stereo not drawn) [drawing 2505]; 51 to 75%
O=C(COc1ccc2c(c1)CCC2)Nc1nnc(-c2ccccn2)[nH]1 [drawing 2526]; 51 to 75%
COc1cccc(CC(=O)Nc2nnc(-c3ccccn3)[nH]2)c1 [drawing 2460]; 51 to 75%
O=c1nc(-c2ccccn2)[nH]c2scc(-c3ccccc3Cl)c12 [drawing 2585]; 51 to 75%

Kindly consider the entry below.
Fill in the blank: the reported inhibition at 20 µM of Cc1sc2nc(-c3ccccn3)nc(NCCCO)c2c1-c1ccccc1 [drawing 2610] is ____. 51 to 75%

* * *

# SYSTEM_NAME: KRas G12D/Q61H double mutant (Homo sapiens (Human), UniProt P01116, G12D/Q61H)
# ASSAY_PROTOCOL: Ras GTP binding domain inhibition assay (labeled GTP)
# CONDITION_DETAILS: 20 μM; read-out: KRas G12D Q61H % Inh.
Quick reference for inhibition at 20 µM among some compounds

Oc1ccc(C2(c3cccc(Cl)c3)CCCC2)cc1 [drawing 2620]; 25 to 50%
O=C(Nc1nnc(-c2ccccn2)[nH]1)c1ccc2ccccc2n1 [drawing 2472]; 76 to 100%
O=C(Nc1nnc(-c2ccccn2)[nH]1)c1ncoc1-c1cccs1 [drawing 2501]; 51 to 75%
Cc1ccc(CN(Cc2ccco2)C(=O)c2oc3ccccc3c2C)cc1 [drawing 2614]; 51 to 75%
Cc1nc(-c2ccccn2)sc1C(=O)Nc1nnc(-c2ccccn2)[nH]1 [drawing 2532]; 51 to 75%
Cc1cc(C(=O)Nc2nc(-c3ccccn3)cs2)no1 [drawing 2568]; 76 to 100%

Fill in the blank: the reported inhibition at 20 µM of O=C(Nc1nnc(-c2ccccn2)[nH]1)c1ccc(Oc2ccccc2)nc1 [drawing 2491] is ____. 51 to 75%

* * *

# SYSTEM_NAME: Rho-A (Homo sapiens (Human), UniProt P61586)
# Sequence (P61586 whole entry): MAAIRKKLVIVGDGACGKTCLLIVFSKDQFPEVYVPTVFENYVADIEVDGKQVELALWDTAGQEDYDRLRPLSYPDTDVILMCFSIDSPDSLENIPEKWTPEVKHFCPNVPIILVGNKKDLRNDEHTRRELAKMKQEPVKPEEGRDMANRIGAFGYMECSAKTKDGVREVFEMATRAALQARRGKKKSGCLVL
# ASSAY_PROTOCOL: Rho inhibition assay (labeled GTP)
# Type: binding
# CONDITION_DETAILS: read-out: Rho-A % Inh.
MEASURE: inhibition at 20 µM

Observe how each entry below is paired with its result.
Cc1sc2c(N)nc(-c3ccccn3)nc2c1-c1ccccc1 [drawing 3709]; 25 to 50%
OCC1(c2ccc(-c3nc(-c4ccccn4)nc(-c4ccc(C5(CO)CC5)cc4)c3Oc3ccccc3)cc2)CC1 [drawing 3850]; 25 to 50%
COCCN(C)c1nc(-c2nccn2C)nc2sc(-c3ccccc3)c(-c3ccccc3)c12 [drawing 3884]; 25 to 50%

Fill in the blank: the reported inhibition at 20 µM of Oc1nc(-c2ccccn2)nc(Oc2cccc(C(F)(F)F)c2)c1O [drawing 3876] is ____. 51 to 75%

Fill in the blank: the reported inhibition at 20 µM of COCCNc1nc(-c2nccn2C)nc2sc(C3CCOCC3)c(-c3ccccc3)c12 [drawing 3908] is ____. 51 to 75%
